target: Histone deacetylase 8 (Homo sapiens); experiment: Inhibition of human KDAC8 at 30 uM after 60 mins by fluorescence assay relative to control
inhibition for assorted compounds
Express your answer in %, writing the number without its unit.

Below, each entry is followed by its recorded inhibition result.
O=C(O)CCCCN1C(=O)[C@H](CC(=O)O)N=C(c2ccccc2)c2ccccc21 :: 0
COC(=O)CCCCN1C(=O)[C@H](Cc2cc3ccccc3n2C(=O)OC(C)(C)C)N=C(c2ccccc2)c2ccccc21 :: 0
C[C@H](OCc1ccccc1)[C@@H]1N=C(c2ccccc2)c2ccccc2NC1=O :: 9.14
CC(C)(C)SC[C@H]1N=C(c2ccccc2)c2ccccc2N(CCCCC(=O)O)C1=O :: 8.31
O=C(CCCCN1C(=O)[C@H](CC(=O)NC(c2ccccc2)(c2ccccc2)c2ccccc2)N=C(c2ccccc2)c2ccccc21)NO :: 43.9

## Input Query: inhibition; subject: O=C(C[C@@H]1N=C(c2ccccc2)c2ccccc2NC1=O)NC(c1ccccc1)(c1ccccc1)c1ccccc1
## Output 0

## Input Quick one: C[C@H](OCc1ccccc1)[C@@H]1N=C(c2ccccc2)c2ccccc2N(CCCCC(=O)O)C1=O
## Output 15.4

## Input Quick one: NCCCC[C@@H]1N=C(c2ccccc2)c2ccccc2N(CCCCC(=O)NO)C1=O
## Output 7.7

====

target: Histone deacetylase 3 (Homo sapiens)
Sequence (O15379 whole entry): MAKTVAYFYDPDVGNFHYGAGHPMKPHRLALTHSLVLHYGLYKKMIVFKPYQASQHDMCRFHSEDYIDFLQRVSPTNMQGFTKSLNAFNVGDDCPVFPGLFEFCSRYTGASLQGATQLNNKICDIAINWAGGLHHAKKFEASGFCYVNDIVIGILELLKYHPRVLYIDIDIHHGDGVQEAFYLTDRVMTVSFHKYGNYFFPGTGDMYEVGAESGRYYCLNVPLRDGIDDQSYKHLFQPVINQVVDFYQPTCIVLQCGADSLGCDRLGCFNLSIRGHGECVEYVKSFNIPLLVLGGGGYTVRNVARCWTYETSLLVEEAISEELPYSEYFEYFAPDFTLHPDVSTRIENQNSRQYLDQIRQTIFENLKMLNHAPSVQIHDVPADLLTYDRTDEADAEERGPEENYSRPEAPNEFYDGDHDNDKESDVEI
pIC50: −log10 of the molar value.
attributeMeasured: pIC50

Below, each entry is followed by its recorded pIC50 result.
COC(=O)CCCCN1C(=O)[C@H](CC(=O)OC(C)(C)C)N=C(c2ccccc2)c2ccccc21 :: < 4.52
O=C(CCCCN1C(=O)[C@@H](CS)N=C(c2ccccc2)c2ccccc21)NO :: 6.74
O=C(CC[C@@H]1N=C(c2ccccc2)c2ccccc2NC1=O)NO :: < 4.52
O=C(O)CCCCN1C(=O)[C@H](CC(=O)O)N=C(c2ccccc2)c2ccccc21 :: < 4.52
COC(=O)CCCCN1C(=O)[C@H](Cc2cncn2C(c2ccccc2)(c2ccccc2)c2ccccc2)N=C(c2ccccc2)c2ccccc21 :: < 4.52

## Input Query: pIC50; subject: CC[C@H](C)[C@@H]1N=C(c2ccccc2)c2ccccc2N(CCCCC(=O)O)C1=O
## Output < 4.52

## Input Quick one: O=C(C[C@@H]1N=C(c2ccccc2)c2ccccc2NC1=O)NO
## Output < 4.52

## Input Quick one: O=C(CCCCN1C(=O)[C@H](Cc2ccc(O)cc2)N=C(c2ccccc2)c2ccccc21)NO
## Output 5.28

## Input Quick one: O=C(O)C[C@@H]1N=C(c2ccccc2)c2ccccc2N(CCCCC(=O)NO)C1=O
## Output 4.90

## Input Quick one: O=C(CCCCN1C(=O)[C@H](Cc2cnc[nH]2)N=C(c2ccccc2)c2ccccc21)NO
## Output 5.88

## Input Quick one: CC(C)(C)OC(=O)C[C@H]1N=C(c2ccccc2)c2ccccc2NC1=O
## Output < 4.52

## Input Quick one: O=C1Nc2ccccc2C(c2ccccc2)=N[C@H]1Cc1cn(C(c2ccccc2)(c2ccccc2)c2ccccc2)cn1
## Output < 4.52

## Input Quick one: O=C1CN=C(c2ccccc2)c2ccccc2N1 [RO-052921]
## Output < 4.52

## Input Quick one: N=C(N)NCCC[C@@H]1N=C(c2ccccc2)c2ccccc2N(CCCCC(=O)NO)C1=O
## Output 6.66

## Input Quick one: N[C@H](Cc1ccc(Cl)cc1Cl)C(=O)N1Cc2ccccc2C1
## Output 4.70

## Input Quick one: O=C(O)CC[C@@H]1N=C(c2ccccc2)c2ccccc2NC1=O
## Output < 4.52

## Input Quick one: NCCCC[C@@H]1N=C(c2ccccc2)c2ccccc2N(CCCCC(=O)NO)C1=O
## Output 6.02

## Input Quick one: COC(=O)CCCCN1C(=O)[C@H](CCSC)N=C(c2ccccc2)c2ccccc21
## Output < 4.52

## Input Quick one: CSCC[C@@H]1N=C(c2ccccc2)c2ccccc2N(CCCCC(=O)O)C1=O
## Output < 4.52

====

inhibition for assorted molecules
biological target: Histone deacetylase 1 (Homo sapiens); assay: Inhibition of human KDAC1 at 30 uM using substrate A after 60 mins by fluorescence assay relative to control
Express your answer in %, writing the number without its unit.

COC(=O)CCCCN1C(=O)[C@H](CCSC)N=C(c2ccccc2)c2ccccc21 :: 0
COC(=O)CCCCN1C(=O)[C@H](C(C)C)N=C(c2ccccc2)c2ccccc21 :: 12.5
CC(C)(C)OC[C@@H]1N=C(c2ccccc2)c2ccccc2N(CCCCC(=O)O)C1=O :: 3.74
C[C@H](OCc1ccccc1)[C@@H]1N=C(c2ccccc2)c2ccccc2NC1=O :: 1.5

Moving on to another molecule below.
## Input Query: inhibition; subject: CC(C)(C)OC[C@@H]1N=C(c2ccccc2)c2ccccc2N(CCCCC(=O)NO)C1=O
## Output 73.7

====

inhibition for assorted molecules
molecular target: Histone deacetylase 3 (Homo sapiens); test: Inhibition of human KDAC3 at 30 uM using FITC-labeled p53 acetylated peptide as substrate after 60 mins by fluorescence assay relative to control
Express your answer in %, writing the number without its unit.

Below, each entry is followed by its recorded inhibition result.
O=C(O)CCCCN1C(=O)[C@H](CCC(=O)O)N=C(c2ccccc2)c2ccccc21 :: 1.47
CC(C)(C)OC(=O)CC[C@@H]1N=C(c2ccccc2)c2ccccc2N(CCCCC(=O)O)C1=O :: 23.9
O=C(CCCNC(=O)C[C@@H]1N=C(c2ccccc2)c2ccccc2NC1=O)NO :: 90.7

## Input Query: inhibition; subject: COC(=O)CCCCN1C(=O)[C@H](Cc2cc3ccccc3n2C(=O)OC(C)(C)C)N=C(c2ccccc2)c2ccccc21
## Output 0

## Input Quick one: CC(C)(C)OC[C@@H]1N=C(c2ccccc2)c2ccccc2NC1=O
## Output 0.38

## Input Quick one: O=C(O)CCCCN1C(=O)CN=C(c2ccccc2)c2ccccc21
## Output 0

## Input Quick one: COC(=O)CCCCN1C(=O)[C@H](C)N=C(c2ccccc2)c2ccccc21
## Output 4.62

## Input Quick one: O=C(O)CC[C@@H]1N=C(c2ccccc2)c2ccccc2NC1=O
## Output 0

## Input Quick one: COC(=O)CCCCN1C(=O)[C@H](Cc2ccccc2)N=C(c2ccccc2)c2ccccc21
## Output 1.85

## Input Quick one: C[C@@H](OCc1ccccc1)[C@@H]1N=C(c2ccccc2)c2ccccc2N(CCCCC(=O)NO)C1=O
## Output 97.2

## Input Quick one: CSCC[C@@H]1N=C(c2ccccc2)c2ccccc2N(CCCCC(=O)O)C1=O
## Output 0

## Input Quick one: CC(C)(C)OC(=O)CC[C@H]1N=C(c2ccccc2)c2ccccc2NC1=O
## Output 3.85

====

target: Histone deacetylase 1 (Homo sapiens, UniProt Q13547); experiment: Inhibition of human KDAC1 at 30 uM using substrate A after 60 mins by fluorescence assay relative to control
Sequence (Q13547 whole entry): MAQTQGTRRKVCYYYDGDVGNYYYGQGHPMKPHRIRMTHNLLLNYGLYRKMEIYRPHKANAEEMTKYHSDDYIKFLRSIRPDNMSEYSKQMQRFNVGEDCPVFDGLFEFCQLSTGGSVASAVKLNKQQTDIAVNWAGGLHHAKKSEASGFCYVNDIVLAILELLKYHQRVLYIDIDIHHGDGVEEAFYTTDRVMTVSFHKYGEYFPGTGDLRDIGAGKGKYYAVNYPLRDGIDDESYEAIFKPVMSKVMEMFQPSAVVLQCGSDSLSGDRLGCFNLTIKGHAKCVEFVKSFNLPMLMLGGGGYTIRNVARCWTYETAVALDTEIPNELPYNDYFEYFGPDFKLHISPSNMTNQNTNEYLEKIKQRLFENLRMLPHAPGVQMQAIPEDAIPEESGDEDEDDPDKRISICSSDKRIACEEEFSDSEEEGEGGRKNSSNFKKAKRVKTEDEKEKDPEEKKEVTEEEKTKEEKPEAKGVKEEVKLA
inhibition for assorted molecules
Express your answer in %, writing the number without its unit.

Below, each entry is followed by its recorded inhibition result.
CC(C)(C)OC(=O)C[C@@H]1N=C(c2ccccc2)c2ccccc2N(CCCCC(=O)NO)C1=O :: 64.1
O=C(CCCCN1C(=O)[C@H](CC(=O)NC(c2ccccc2)(c2ccccc2)c2ccccc2)N=C(c2ccccc2)c2ccccc21)NO :: 43.1
COC(=O)CCCCN1C(=O)[C@H](CC(=O)NC(c2ccccc2)(c2ccccc2)c2ccccc2)N=C(c2ccccc2)c2ccccc21 :: 8.7

## Input Lab request: please report inhibition under test system Histone deacetylase 1 (Homo sapiens, UniProt Q13547) for O=C(O)CC[C@@H]1N=C(c2ccccc2)c2ccccc2NC1=O
## Output 2.44

====

molecular target: Histone deacetylase 1 (Homo sapiens, UniProt Q13547); experiment: Inhibition of human KDAC1 at 30 uM using substrate A after 60 mins by fluorescence assay relative to control
inhibition for assorted compounds
# include the unit after the value

O=C(CCCCN1C(=O)[C@@H](CS)N=C(c2ccccc2)c2ccccc21)NO :: 97.3%

Moving on to another compound below.
## Input Query: inhibition; subject: COC(=O)CCCCN1C(=O)[C@H](C)N=C(c2ccccc2)c2ccccc21
## Output 9.4%

====

inhibition for assorted compounds
target: Histone deacetylase 8 (Homo sapiens) (UniProt Q9BY41); test: Inhibition of human KDAC8 at 30 uM after 60 mins by fluorescence assay relative to control
Sequence (Q9BY41 whole entry): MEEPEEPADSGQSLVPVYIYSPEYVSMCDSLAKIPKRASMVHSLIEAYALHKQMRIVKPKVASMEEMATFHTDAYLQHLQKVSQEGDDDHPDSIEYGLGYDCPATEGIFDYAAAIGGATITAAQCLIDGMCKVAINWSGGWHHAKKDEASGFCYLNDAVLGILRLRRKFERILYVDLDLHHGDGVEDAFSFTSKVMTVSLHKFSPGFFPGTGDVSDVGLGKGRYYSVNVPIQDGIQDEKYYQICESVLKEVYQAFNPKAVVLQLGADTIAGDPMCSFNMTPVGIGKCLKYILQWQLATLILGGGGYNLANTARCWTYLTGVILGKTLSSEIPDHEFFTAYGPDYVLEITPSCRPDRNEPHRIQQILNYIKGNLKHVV
Express your answer in %, writing the number without its unit.

CC(C)(C)OC[C@@H]1N=C(c2ccccc2)c2ccccc2N(CCCCC(=O)NO)C1=O :: 26.9
O=C(CCCCN1C(=O)[C@H](Cc2cc3ccccc3[nH]2)N=C(c2ccccc2)c2ccccc21)NO :: 34.1
O=C(O)CCCCN1C(=O)[C@H](CCC(=O)NC(c2ccccc2)(c2ccccc2)c2ccccc2)N=C(c2ccccc2)c2ccccc21 :: 11
COC(=O)CCCCN1C(=O)CN=C(c2ccccc2)c2ccccc21 :: 2.83
COC(=O)CCCCN1C(=O)[C@H](COC(C)(C)C)N=C(c2ccccc2)c2ccccc21 :: 5

## Input Query: inhibition; subject: COC(=O)CCCCN1C(=O)[C@H](CC(C)C)N=C(c2ccccc2)c2ccccc21
## Output 7.63

## Input Quick one: O=C(CCCCN1C(=O)[C@H](CCC(=O)NC(c2ccccc2)(c2ccccc2)c2ccccc2)N=C(c2ccccc2)c2ccccc21)NO
## Output 53.1

## Input Quick one: COC(=O)CCCCN1C(=O)[C@H](CCC(=O)NC(c2ccccc2)(c2ccccc2)c2ccccc2)N=C(c2ccccc2)c2ccccc21
## Output 0

## Input Quick one: CC(C)(C)OC(=O)NCCCC[C@@H]1N=C(c2ccccc2)c2ccccc2N(CCCCC(=O)O)C1=O
## Output -2.29

## Input Quick one: CC(C)(C)OC(=O)C[C@@H]1N=C(c2ccccc2)c2ccccc2N(CCCCC(=O)O)C1=O
## Output 0

## Input Quick one: C[C@@H](O)[C@@H]1N=C(c2ccccc2)c2ccccc2N(CCCCC(=O)NO)C1=O
## Output 40.3

## Input Quick one: Cc1c(C)c(S(=O)(=O)NC(=N)NCCC[C@@H]2N=C(c3ccccc3)c3ccccc3NC2=O)c(C)c2c1OC(C)(C)C2
## Output 7.99

## Input Quick one: O=C(CCCCN1C(=O)[C@@H](CS)N=C(c2ccccc2)c2ccccc21)NO
## Output 81.2

## Input Quick one: O=C(CCCCN1C(=O)[C@H](CO)N=C(c2ccccc2)c2ccccc21)NO
## Output 19.9

## Input Quick one: CC[C@H](C)[C@@H]1N=C(c2ccccc2)c2ccccc2NC1=O
## Output 0

## Input Quick one: O=C(CCCCN1C(=O)[C@H](Cc2cncn2C(c2ccccc2)(c2ccccc2)c2ccccc2)N=C(c2ccccc2)c2ccccc21)NO
## Output 1.38

## Input Quick one: O=C(CCCCN1C(=O)[C@H](CCC(=O)NO)N=C(c2ccccc2)c2ccccc21)NO
## Output 74.7

## Input Quick one: CC[C@H](C)[C@@H]1N=C(c2ccccc2)c2ccccc2N(CCCCC(=O)O)C1=O
## Output 3.99
